- protocol details: Drug uptake in KLH Balb/c mouse model at 0.6 mg/kg, po after 7 hrs
- Assay type: ADME, organism-based
- experimental conditions: in vivo, read-out: Drug uptake
measurement label: concentration at 7 h

What value of concentration at 7 h has been recorded for this entry: CC(=O)N1C[C@@H](C)N(c2cccc(-c3cc(-c4ccnn4C4CCOCC4)c4c(N)ncnn34)c2)[C@@H](C)C1
< 6.4 nM

----------
- protocol details: Drug uptake in Balb/c mouse KLH model at 15 mg/kg, po after 24 hrs
- Type: ADME, organism-based
- experimental conditions: in vivo, read-out: Drug uptake
measurement label: concentration at 24 h

What value of concentration at 24 h has been recorded for this entry: CC(=O)N1C[C@@H](C)N(c2cccc(-c3cc(-c4ccnn4C4CCOCC4)c4c(N)ncnn34)c2)[C@@H](C)C1
< 7 nM

----------
- protocol details: Cmax in BALB/c mouse up to 300 mg/kg, qd measured on day 4
- Type: ADME, organism-based
- Parameters: dose 300 mg/kg
- experimental conditions: in vivo
measurement label: Cmax

What value of Cmax has been recorded for this entry: CC(=O)N1C[C@@H](C)N(c2cccc(-c3cc(-c4ccnn4C4CCOCC4)c4c(N)ncnn34)c2)[C@@H](C)C1
≤ 55 µM

----------
- protocol details: AUC in BALB/c mouse up to 300 mg/kg, qd measured on day 4
- Format: ADME, organism-based
- experimental conditions: in vivo
measurement label: AUC

What value of AUC has been recorded for this entry: CC(=O)N1C[C@@H](C)N(c2cccc(-c3cc(-c4ccnn4C4CCOCC4)c4c(N)ncnn34)c2)[C@@H](C)C1
≤ 520 µM·h

----------
- protocol details: Drug uptake in Balb/c mouse KLH model at 3 mg/kg, po after 7 hrs
- Assay type: ADME, organism-based
- experimental conditions: in vivo, read-out: Drug uptake
measurement label: concentration at 7 h (nM)
The figure you give is taken to be in nM; do not add the unit.

What value of concentration at 7 h has been recorded for this entry: CC(=O)N1C[C@@H](C)N(c2cccc(-c3cc(-c4ccnn4C4CCOCC4)c4c(N)ncnn34)c2)[C@@H](C)C1
24.9

----------
- protocol details: Drug uptake in Balb/c mouse KLH model at 15 mg/kg, po after 7 hrs
- Format: ADME, organism-based
- experimental conditions: in vivo, read-out: Drug uptake
measurement label: concentration at 7 h
Record the result as number plus unit.

What value of concentration at 7 h has been recorded for this entry: CC(=O)N1C[C@@H](C)N(c2cccc(-c3cc(-c4ccnn4C4CCOCC4)c4c(N)ncnn34)c2)[C@@H](C)C1
97.8 nM

----------
- protocol details: Stability in mouse liver microsomes assessed as parent compound remaining at 0.5 uM after 10 mins by high throughput assay
- Assay type: ADME, microsome
- experimental conditions: read-out: Stability
measurement label: remaining at 10 min, 0.5 µM (%)
The figure you give is taken to be in %; do not add the unit.

CC(=O)N1C[C@@H](C)N(c2cncc(-c3cc(-c4ccnn4C4CCOCC4)c4c(N)ncnn34)c2)[C@@H](C)C1	48
CC(=O)N1C[C@@H](C)N(c2cccc(-c3cc(-c4ccnn4C4CCOCC4)c4c(N)ncnn34)c2)[C@@H](C)C1	54
COc1cc(-c2cc(-c3ccnn3C3CCOCC3)c3c(N)ncnn23)cc(N2[C@H](C)CN(C(C)=O)C[C@@H]2C)c1	14

Now for a further molecule.
What value of remaining at 10 min, 0.5 µM has been recorded for this entry: CC(=O)N1C[C@@H](C)N(c2cc(F)cc(-c3cc(-c4ccnn4C4CCOCC4)c4c(N)ncnn34)c2)[C@@H](C)C1
35
